Data provenance is patent US7169778B2.

measured.target: cdk2/cyclinE (Homo sapiens, UniProt P24941)
experimental.protocol: Cyclin-dependent kinase assay cdk2/cyclinE
conditions: cyclin dependent kinase 2/cyclin E complex; read-out: CDK2E IC50
pIC50: −log10 of the molar value.
experimental.endpoint: pIC50

Use these answered entries as a reference point.
# molecule, experimental.endpoint, measured.value
measured = [
    ("O=c1cnc2cnc(Nc3ccncc3)nc2n1C1CCCC1", "pIC50", 7.30),
    ("O=c1cnc2cnc(Nc3ccc(N4CCNCC4)cc3)nc2n1C1CCCC1", "pIC50", 6.21),
    ("CN1CCN(c2ccc(Nc3ncc4ncc(=O)n(C5CCCC5)c4n3)cc2)CC1", "pIC50", 6.02),
]

a = O=c1cnc2cnc(Nc3ccc(N4CCOCC4)cc3)nc2n1C1CCCC1
b = Cc1nc2cnc(Nc3ccc(N4CCN(C)CC4)cc3)nc2n(C2CCCC2)c1=O
c = CC(C)(C)OC(=O)N1CCN(c2ccc(Nc3ncc4ncc(=O)n(C5CCCC5)c4n3)cc2)CC1
d = Cc1nc2cnc(Nc3ccc(N4CCOCC4)cc3)nc2n(C2CCCC2)c1=O
e = NC1CCN(c2ccc(Nc3ncc4ncc(=O)n(C5CCCC5)c4n3)cc2)C1 (centres unmarked)
Query: Please list the entries, largest pIC50 first. Returns: the labels listed in the requested order.
Reply: a, e, c, d, b

----------
In what follows, each item is paired with its IC50 for C-src kinase (Homo sapiens).
experimental.endpoint: IC50 (nM)

Completed entries (count: 3):
# compound, IC50, nM
rows = [
    ("CCN(CC)CCOc1ccc(Nc2ncc3nc(-c4c(Cl)cccc4Cl)c(=O)n(C)c3n2)cc1 [Compound 4]", 15),
    ("O=c1cnc2cnc(Nc3ccc(N4CCNCC4)cc3)nc2n1C1CCCC1 [Compound 16]", 3300),
    ("Cc1nc2cnc(Nc3ccc(N4CCN(C)CC4)cc3)nc2n(C2CCCC2)c1=O [Compound 9]", 3000),
]

A = CCN(CC)C(=O)c1ccc(Nc2ncc3nc(-c4c(Cl)c(OC)nc(OC)c4Cl)c(=O)n(C)c3n2)cc1 [Compound 22]
B = CCN(CC)CCOc1ccc(Nc2ncc3nc(-c4c(Cl)cncc4Cl)c(=O)n(C)c3n2)cc1 [Compound 20]
Query: I'm curious, which of these has a smaller IC50 number: A or B ? Provide the label of your selected option as the answer.
Reply: B

1 = Cn1c(=O)c(-c2c(Br)cncc2Br)nc2cnc(Nc3ccc(N4CCOCC4)cc3)nc21 [Compound 19]
2 = CCN(CC)C(=O)c1ccc(Nc2ncc3nc(-c4c(Cl)cccc4Cl)c(=O)n(C)c3n2)cc1 [Compound 6]
Query: Please let me know which one, 1 or 2 , has a lower measured IC50 value. Let me know the label of the one you choose.
Reply: 2

----------
measured.target: N-terminal truncated Wee 1 (Homo sapiens, UniProt P30291)
Sequence (P30291 299-569 limits assumed): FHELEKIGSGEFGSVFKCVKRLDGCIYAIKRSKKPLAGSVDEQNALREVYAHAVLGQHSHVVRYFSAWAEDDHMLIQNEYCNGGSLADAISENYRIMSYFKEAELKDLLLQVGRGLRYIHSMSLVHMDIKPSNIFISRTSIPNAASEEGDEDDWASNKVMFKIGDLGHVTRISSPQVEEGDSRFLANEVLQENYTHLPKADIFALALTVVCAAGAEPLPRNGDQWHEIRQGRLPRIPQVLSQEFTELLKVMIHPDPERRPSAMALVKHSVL
experimental.protocol: Wee 1 OY kinase assay
conditions: read-out: WEE1OY IC50
experimental.endpoint: IC50

Query: Returns the measured IC50 for the input molecule. Input: `CCN(CC)C(=O)c1ccc(Nc2ncc3nc(-c4ccccc4)c(=O)n(C)c3n2)cc1`
Reply: > 50 µM

Query: What does the data say about its IC50? Entry: `CCN(CC)CCOc1ccc(Nc2ncc3nc(-c4c(Cl)c(OC)nc(OC)c4Cl)c(=O)n(C)c3n2)cc1`
Reply: > 50 µM

Query: # IC50 lookup, item `COc1nc(OC)c(Cl)c(-c2nc3cnc(Nc4ccc(N5CCOCC5)cc4)nc3n(C)c2=O)c1Cl`
Reply: > 50 µM

Query: Given the entry `Cn1c(=O)c(-c2ccccc2)nc2cnc(Nc3ccc(N4CCOCC4)cc3)nc21` , report its measured IC50.
Reply: > 50 µM

----------
measured.target: cdk4/cyclin D1 complex (Homo sapiens, UniProt P11802)
Sequence (P11802 whole entry, species assumed): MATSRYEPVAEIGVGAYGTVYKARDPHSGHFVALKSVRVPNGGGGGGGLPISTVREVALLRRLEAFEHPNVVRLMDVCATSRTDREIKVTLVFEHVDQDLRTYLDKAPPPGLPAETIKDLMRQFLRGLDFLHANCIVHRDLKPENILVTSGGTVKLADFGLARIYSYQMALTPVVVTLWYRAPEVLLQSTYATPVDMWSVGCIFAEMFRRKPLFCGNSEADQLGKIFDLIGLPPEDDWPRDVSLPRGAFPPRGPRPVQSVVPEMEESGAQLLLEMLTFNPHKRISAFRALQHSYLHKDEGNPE
Sequence (P24385 whole entry partner, species assumed): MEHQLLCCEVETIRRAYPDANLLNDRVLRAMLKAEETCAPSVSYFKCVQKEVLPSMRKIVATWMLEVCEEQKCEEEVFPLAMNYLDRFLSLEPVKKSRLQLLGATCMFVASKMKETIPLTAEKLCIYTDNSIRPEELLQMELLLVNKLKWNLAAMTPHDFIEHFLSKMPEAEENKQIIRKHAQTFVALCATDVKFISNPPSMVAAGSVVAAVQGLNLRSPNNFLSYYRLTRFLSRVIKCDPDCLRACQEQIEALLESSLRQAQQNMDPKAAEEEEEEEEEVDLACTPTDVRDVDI
experimental.protocol: Cyclin-dependent kinase 4 (CDK4) assay
conditions: cyclin dependent kinase 4/cyclin D1 complex; read-out: CDK4D IC50
pIC50: −log10 of the molar value.
experimental.endpoint: pIC50

1 = Cc1nc2cnc(Nc3ccc(N4CCOCC4)cc3)nc2n(C2CCCC2)c1=O [Compound 10]
2 = Cc1nc2cnc(Nc3ccc(N4CCN(C)CC4)cc3)nc2n(C2CCCC2)c1=O [Compound 9]
3 = O=c1cnc2cnc(Nc3ccncc3)nc2n1C1CCCC1 [Compound 11]
4 = O=c1cnc2cnc(Nc3ccc(N4CCNCC4)cc3)nc2n1C1CCCC1 [Compound 16]
Query: Kindly provide a descending ordering of the above compounds based on their pIC50. Hello, could you send the labels back in the order asked? Thank you.
Reply: 4, 2, 1, 3
(4: 8.15, 2: 7.33, 1: 6.36, 3: 5.90)

I = O=c1cnc2cnc(Nc3ccc(N4CCOCC4)cc3)nc2n1C1CCCC1 [Compound 7]
II = CC(C)(C)OC(=O)N1CCN(c2ccc(Nc3ncc4ncc(=O)n(C5CCCC5)c4n3)cc2)CC1 [Compound 52]
Query: Could you tell me which of I and II has the lower pIC50 reading? Write down the label attached to your selection.
Reply: II

----------
measured.target: human FGF-1 (flg) receptor tyrosine kinase (Homo sapiens, UniProt P11362)
Construct: amplify a fragment of DNA that codes for the intracellular tyrosine kinase domain
Sequence (P11362 478-767 limits assumed): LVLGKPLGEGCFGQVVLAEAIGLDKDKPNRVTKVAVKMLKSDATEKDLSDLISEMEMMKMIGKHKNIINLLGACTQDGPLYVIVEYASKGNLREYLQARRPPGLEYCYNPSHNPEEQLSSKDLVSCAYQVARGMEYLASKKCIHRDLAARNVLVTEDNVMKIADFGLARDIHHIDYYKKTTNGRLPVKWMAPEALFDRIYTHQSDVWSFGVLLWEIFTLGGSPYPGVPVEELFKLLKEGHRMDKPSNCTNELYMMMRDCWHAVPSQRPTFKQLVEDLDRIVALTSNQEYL
experimental.protocol: FGF receptor tyrosine kinase assay
pIC50: −log10 of the molar value.
experimental.endpoint: pIC50

# structure.string, measured.value
data = [
    ("COc1nc(OC)c(Cl)c(-c2nc3cnc(Nc4ccc(N5CCOCC5)cc4)nc3n(C)c2=O)c1Cl", 6.64),
]

a = CCN(CC)CCOc1ccc(Nc2ncc3nc(-c4c(Cl)c(OC)nc(OC)c4Cl)c(=O)n(C)c3n2)cc1
b = CCN(CC)CCOc1ccc(Nc2ncc3nc(-c4cc(OC)cc(OC)c4)c(=O)n(CC)c3n2)cc1
c = CCN(CC)C(=O)c1ccc(Nc2ncc3nc(-c4c(Cl)c(OC)nc(OC)c4Cl)c(=O)n(C)c3n2)cc1
Query: Please list the entries, largest pIC50 first. Rank the items, then write their labels in that order.
Reply: a, c, b
(a: 7.27, c: 6.80, b: 4.52)

----------
experimental.endpoint: melting point

# compound, melting point
measured = [
    ("CC(C)(C)OC(=O)N1CCN(c2ccc(Nc3ncc4ncc(=O)n(C5CCCC5)c4n3)cc2)CC1 [Compound 52]", "215 to 217 °C"),
    ("CCN(CC)CCOc1ccc(Nc2ncc3nc(-c4cc(OC)cc(OC)c4)c(=O)n(CC)c3n2)cc1 [Compound 14]", "154 to 155 °C"),
    ("Cn1c(=O)c(-c2c(Br)cncc2Br)nc2cnc(Nc3ccc(N4CCOCC4)cc3)nc21 [Compound 19]", "204 to 206 °C"),
]

Query: Return reported melting point; argument: CCN(CC)CCOc1ccc(Nc2ncc3nc(-c4c(Cl)cccc4Cl)c(=O)n(C)c3n2)cc1 [Compound 4]
Reply: 156 to 161 °C

Query: Using the record for CCN(CC)C(=O)c1ccc(Nc2ncc3nc(-c4c(Cl)cncc4Cl)c(=O)n(C)c3n2)cc1 [Compound 13] , report its melting point.
Reply: 230 to 231 °C

Query: Which value of melting point has been reported for Cc1nc2cnc(Nc3ccc(N4CCOCC4)cc3)nc2n(C2CCCC2)c1=O [Compound 10] in the records?
Reply: 230 to 234 °C

----------
Reported melting point by item:

Before answering, review these 2 worked examples.
# structure.string, melting point
data = [
    ("CCN(CC)C(=O)c1ccc(Nc2ncc3nc(-c4c(Cl)cccc4Cl)c(=O)n(C)c3n2)cc1", "239 to 241 °C"),
    ("Cn1c(=O)c(-c2c(Cl)cncc2Cl)nc2cnc(Nc3ccc(N4CCOCC4)cc3)nc21", "243 to 245 °C"),
]

Query: Query (compound): `COc1nc(OC)c(Cl)c(-c2nc3cnc(Nc4ccc(N5CCOCC5)cc4)nc3n(C)c2=O)c1Cl` ; field requested: melting point
Reply: 275 to 276 °C

Query: Entry `O=c1[nH]c2cnc(Nc3ccc(N4CCOCC4)cc3)nc2n(C2CCCC2)c1=O` has what melting point?
Reply: 283 to 286 °C

Query: I have this compound here, `Cc1nc2cnc(Nc3ccc(N4CCN(C)CC4)cc3)nc2n(C2CCCC2)c1=O` , and I need its recorded melting point.
Reply: 210 to 211 °C

Query: Record request: melting point value, item `Cn1c(=O)c(-c2c(Cl)cccc2Cl)nc2cnc(Nc3ccc(N4CCOCC4)cc3)nc21`
Reply: 292 to 293 °C

Query: Which measured melting point value corresponds to `CCN(CC)CCOc1ccc(Nc2ncc3nc(-c4c(Cl)cncc4Cl)c(=O)n(C)c3n2)cc1` ?
Reply: 179 to 180.5 °C

Query: Item `CN1CCN(c2ccc(Nc3ncc4ncc(=O)n(C5CCCC5)c4n3)cc2)CC1` has what recorded melting point?
Reply: 208 to 211 °C

----------
measured.target: cdk2/cyclinA (Homo sapiens, UniProt P24941)
experimental.protocol: Cyclin-dependent kinase assay cdk2/cyclinA
conditions: cyclin dependent kinase 2/cyclin A complex; read-out: CDK2A IC50
experimental.endpoint: IC50 (µM)

Would you please look over these solved cases?
# compound, IC50 [µM]
measured = [
    ("O=c1cnc2cnc(Nc3ccncc3)nc2n1C1CCCC1 [Compound 11]", 0.036),
    ("NC1CCN(c2ccc(Nc3ncc4ncc(=O)n(C5CCCC5)c4n3)cc2)C1 (centres unmarked) [Compound 17]", 0.094),
    ("Cc1nc2cnc(Nc3ccc(N4CCOCC4)cc3)nc2n(C2CCCC2)c1=O [Compound 10]", 1.84),
    ("O=c1cnc2cnc(Nc3ccc(N4CCNCC4)cc3)nc2n1C1CCCC1 [Compound 16]", 0.18),
    ("Cc1nc2cnc(Nc3ccc(N4CCN(C)CC4)cc3)nc2n(C2CCCC2)c1=O [Compound 9]", 2.78),
    ("CN1CCN(c2ccc(Nc3ncc4ncc(=O)n(C5CCCC5)c4n3)cc2)CC1 [Compound 8]", 0.26),
]

a = CC(C)(C)OC(=O)N1CCN(c2ccc(Nc3ncc4ncc(=O)n(C5CCCC5)c4n3)cc2)CC1 [Compound 52]
b = O=c1cnc2cnc(Nc3ccc(N4CCOCC4)cc3)nc2n1C1CCCC1 [Compound 7]
Query: I need your help: which of the pair a , b has higher IC50? Give the chosen item's label as your response.
Reply: a
